Each recorded value in this set is attributed to ChEMBL document CHEMBL1131216.

- System: Streptococcus pyogenes
- assaySummary: In vitro antibacterial activity of 930 strain of Gram positive bacteria Streptococcus pyogenes
- Type: functional
recordedMetric: MIC

{"smilesRecord": "CC[C@H]1OC(=O)/C(C)=C/[C@H](C)[C@@H](O[C@@H]2O[C@H](C)C[C@H](N(C)C)[C@H]2O)[C@@](C)(OC)C[C@@H](C)C(=O)[C@H](C)[C@H]2N(NCc3ccc(O)c(O)c3)C(=O)O[C@]12C", "systemUnderTest": "Streptococcus pyogenes", "result": "> 128 µg/mL"}
{"smilesRecord": "CC[C@H]1OC(=O)/C(C)=C/[C@H](C)[C@@H](O[C@@H]2O[C@H](C)C[C@H](N(C)C)[C@H]2O)[C@@](C)(OC)C[C@@H](C)C(=O)[C@H](C)[C@H]2N(NCc3ccccc3CO)C(=O)O[C@]12C", "systemUnderTest": "Streptococcus pyogenes", "result": "> 128 µg/mL"}
{"smilesRecord": "CC[C@H]1OC(=O)/C(C)=C/[C@H](C)[C@@H](O[C@@H]2O[C@H](C)C[C@H](N(C)C)[C@H]2O)[C@@](C)(OC)C[C@@H](C)C(=O)[C@H](C)[C@H]2N(NCCCc3ccc(O)cc3)C(=O)O[C@]12C", "systemUnderTest": "Streptococcus pyogenes", "result": "> 64 µg/mL"}
{"smilesRecord": "CC[C@H]1OC(=O)/C(C)=C/[C@H](C)[C@@H](O[C@@H]2O[C@H](C)C[C@H](N(C)C)[C@H]2O)[C@@](C)(OC)C[C@@H](C)C(=O)[C@H](C)[C@H]2N(NCc3cccc(O)c3)C(=O)O[C@]12C", "systemUnderTest": "Streptococcus pyogenes", "result": "> 128 µg/mL"}
{"smilesRecord": "CC[C@H]1OC(=O)/C(C)=C/[C@H](C)[C@@H](O[C@@H]2O[C@H](C)C[C@H](N(C)C)[C@H]2O)[C@@](C)(OC)C[C@@H](C)C(=O)[C@H](C)[C@H]2N(NCc3ccc(SC)cc3)C(=O)O[C@]12C", "systemUnderTest": "Streptococcus pyogenes", "result": "64 µg/mL"}
{"smilesRecord": "CC[C@H]1OC(=O)/C(C)=C/[C@H](C)[C@@H](O[C@@H]2O[C@H](C)C[C@H](N(C)C)[C@H]2O)[C@@](C)(OC)C[C@@H](C)C(=O)[C@H](C)[C@H]2N(NCCCc3ccc(Cl)cc3Cl)C(=O)O[C@]12C", "systemUnderTest": "Streptococcus pyogenes", "result": "8 µg/mL"}
{"smilesRecord": "CC[C@H]1OC(=O)/C(C)=C/[C@H](C)[C@@H](O[C@@H]2O[C@H](C)C[C@H](N(C)C)[C@H]2O)[C@@](C)(OC)C[C@@H](C)C(=O)[C@H](C)[C@H]2N(NCCCc3ccc(NC(C)=O)cc3)C(=O)O[C@]12C", "systemUnderTest": "Streptococcus pyogenes", "result": "> 128 µg/mL"}
{"smilesRecord": "CC[C@H]1OC(=O)/C(C)=C/[C@H](C)[C@@H](O[C@@H]2O[C@H](C)C[C@H](N(C)C)[C@H]2O)[C@@](C)(OC)C[C@@H](C)C(=O)[C@H](C)[C@H]2N(NCCCn3nnc4ccccc43)C(=O)O[C@]12C", "systemUnderTest": "Streptococcus pyogenes", "result": "> 128 µg/mL"}
{"smilesRecord": "CC[C@H]1OC(=O)/C(C)=C/[C@H](C)[C@@H](O[C@@H]2O[C@H](C)C[C@H](N(C)C)[C@H]2O)[C@@](C)(OC)C[C@@H](C)C(=O)[C@H](C)[C@H]2N(NCc3ccc(N(C)C)cc3)C(=O)O[C@]12C", "systemUnderTest": "Streptococcus pyogenes", "result": "128 µg/mL"}
{"smilesRecord": "CC[C@H]1OC(=O)/C(C)=C/[C@H](C)[C@@H](O[C@@H]2O[C@H](C)C[C@H](N(C)C)[C@H]2O)[C@@](C)(OC)C[C@@H](C)C(=O)[C@H](C)[C@H]2N(NCCCc3ccnc4ccccc34)C(=O)O[C@]12C", "systemUnderTest": "Streptococcus pyogenes", "result": "> 64 µg/mL"}
{"smilesRecord": "CC[C@H]1OC(=O)/C(C)=C/[C@H](C)[C@@H](O[C@@H]2O[C@H](C)C[C@H](N(C)C)[C@H]2O)[C@@](C)(OC)C[C@@H](C)C(=O)[C@H](C)[C@H]2N(NCc3ccccn3)C(=O)O[C@]12C", "systemUnderTest": "Streptococcus pyogenes", "result": "> 128 µg/mL"}
{"smilesRecord": "CC[C@H]1OC(=O)/C(C)=C/[C@H](C)[C@@H](O[C@@H]2O[C@H](C)C[C@H](N(C)C)[C@H]2O)[C@@](C)(OC)C[C@@H](C)C(=O)[C@H](C)[C@H]2N(NCCCc3ccc(OC)cc3)C(=O)O[C@]12C", "systemUnderTest": "Streptococcus pyogenes", "result": "64 µg/mL"}
{"smilesRecord": "CC[C@H]1OC(=O)/C(C)=C/[C@H](C)[C@@H](O[C@@H]2O[C@H](C)C[C@H](N(C)C)[C@H]2O)[C@@](C)(OC)C[C@@H](C)C(=O)[C@H](C)[C@H]2N(NCc3ccccc3)C(=O)O[C@]12C", "systemUnderTest": "Streptococcus pyogenes", "result": "> 64 µg/mL"}
{"smilesRecord": "CC[C@H]1OC(=O)/C(C)=C/[C@H](C)[C@@H](O[C@@H]2O[C@H](C)C[C@H](N(C)C)[C@H]2O)[C@@](C)(OC)C[C@@H](C)C(=O)[C@H](C)[C@H]2N(NCc3ccc(OC)cc3)C(=O)O[C@]12C", "systemUnderTest": "Streptococcus pyogenes", "result": "> 64 µg/mL"}
